Catalogue of viability, T/C readings, one per entry.
test system: 855422-203-R-J1-PDC spheroids with HUVEC/MSC, viability; test: Anticancer human tumor 855422-203-R-J1-PDC patient-derived bladder carcinoma cell line growth inhibition [PI3K]; details: second compound 0.316 µM; first compound 10 µM; hits give low values;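 also: agents incubated with spheroids for one week before read-out; 100% = DMSO vehicle-treated control wells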

- MOLECULE: "CC(Cn1ccc(-c2ccc(C#N)c(Cl)c2)n1)NC(=O)c1cc(C(C)O)[nH]n1 (stereo unspecified) + COc1c(OCCCN2CCOCC2)ccc2c3n(c(=NC(=O)c4cnc(N)nc4)nc12)CCN3"
  viability, T/C: "7.91%"
- MOLECULE: "CC1(C)CCC(Nc2ncc(C(F)(F)F)c(-c3c[nH]c4c(P(C)(C)=O)c(C#N)ccc34)n2)CN1 (stereo unspecified) + Cc1nc(NC(=O)N2CCCC2C(N)=O)sc1-c1ccnc(C(C)(C)C(F)(F)F)c1"
  viability, T/C: "5.22%"
- MOLECULE: "C=CC(=O)N1CCN(c2nc(=O)n(-c3c(C)ccnc3C(C)C)c3nc(-c4c(O)cccc4F)c(F)cc23)C(C)C1 (stereo unspecified) + CC(Nc1ncnc2nc[nH]c12)c1cc2cccc(Cl)c2c(=O)n1-c1ccccc1"
  viability, T/C: "122%"
- MOLECULE: "CC1(C)CCC(Nc2ncc(C(F)(F)F)c(-c3c[nH]c4c(P(C)(C)=O)c(C#N)ccc34)n2)CN1 (stereo unspecified) + CC(Nc1ncnc2nc[nH]c12)c1cc2cccc(Cl)c2c(=O)n1-c1ccccc1"
  viability, T/C: "4.23%"
- MOLECULE: "CC(C)NCC(C(=O)N1CCN(c2ncnc3c2C(C)CC3O)CC1)c1ccc(Cl)cc1 (stereo unspecified) + COc1c(OCCCN2CCOCC2)ccc2c3n(c(=NC(=O)c4cnc(N)nc4)nc12)CCN3"
  viability, T/C: "3.59%"
- MOLECULE: "CC(Cn1ccc(-c2ccc(C#N)c(Cl)c2)n1)NC(=O)c1cc(C(C)O)[nH]n1 (stereo unspecified) + CC(Nc1ncnc2nc[nH]c12)c1cc2cccc(Cl)c2c(=O)n1-c1ccccc1"
  viability, T/C: "77.4%"
- MOLECULE: "Cn1nccc1Nc1nccc(-c2ccn(C(CO)c3ccc(Cl)c(F)c3)c(=O)c2)n1 (stereo unspecified) + COc1c(OCCCN2CCOCC2)ccc2c3n(c(=NC(=O)c4cnc(N)nc4)nc12)CCN3"
  viability, T/C: "1.9%"
- MOLECULE: "C#Cc1c(F)ccc2cc(O)cc(-c3ncc4c(N5CC6CCC(C5)N6)nc(OCC56CCCN5CC(F)C6)nc4c3F)c12 (stereo unspecified) + CC(Nc1ncnc2nc[nH]c12)c1cc2cccc(Cl)c2c(=O)n1-c1ccccc1"
  viability, T/C: "121%"
- MOLECULE: "C[C@@H](NC(=O)c1ncnc(N)c1Cl)c1ncc(C(=O)Nc2cc(C(F)(F)F)c(Cl)cn2)s1 + COc1c(OCCCN2CCOCC2)ccc2c3n(c(=NC(=O)c4cnc(N)nc4)nc12)CCN3"
  viability, T/C: "5.99%"
- MOLECULE: "Cn1ncc(Cl)c1-c1cc(C(=O)NC(CN)Cc2cccc(F)c2)sc1Cl (stereo unspecified) + COc1c(OCCCN2CCOCC2)ccc2c3n(c(=NC(=O)c4cnc(N)nc4)nc12)CCN3"
  viability, T/C: "0.34%"
- MOLECULE: "CC1(C)CCC(Nc2ncc(C(F)(F)F)c(-c3c[nH]c4c(P(C)(C)=O)c(C#N)ccc34)n2)CN1 (stereo unspecified) + CC(Nc1ccc2c(c1)OCCn1cc(N3C(=O)OCC3C(F)F)nc1-2)C(N)=O"
  viability, T/C: "1.23%"
- MOLECULE: "C#Cc1c(F)ccc2cc(O)cc(-c3ncc4c(N5CC6CCC(C5)N6)nc(OCC56CCCN5CC(F)C6)nc4c3F)c12 (stereo unspecified) + COc1c(OCCCN2CCOCC2)ccc2c3n(c(=NC(=O)c4cnc(N)nc4)nc12)CCN3"
  viability, T/C: "3.41%"
- MOLECULE: "C[C@@H](NC(=O)c1ncnc(N)c1Cl)c1ncc(C(=O)Nc2cc(C(F)(F)F)c(Cl)cn2)s1 + CC(Nc1ncnc2nc[nH]c12)c1cc2cccc(Cl)c2c(=O)n1-c1ccccc1"
  viability, T/C: "109%"
- MOLECULE: "CCCS(=O)(=O)Nc1ccc(F)c(C(=O)c2c[nH]c3ncc(-c4ccc(Cl)cc4)cc23)c1F + CC(Nc1ccc2c(c1)OCCn1cc(N3C(=O)OCC3C(F)F)nc1-2)C(N)=O"
  viability, T/C: "0.2%"
- MOLECULE: "CNC(=O)c1ccc(N2C(=S)N(c3ccc(C#N)c(C(F)(F)F)c3)C(=O)C2(C)C)cc1F + CC(Nc1ncnc2nc[nH]c12)c1cc2cccc(Cl)c2c(=O)n1-c1ccccc1"
  viability, T/C: "63.1%"
- MOLECULE: "CC1(C)CCC(CN2CCN(c3ccc(C(=O)NS(=O)(=O)c4ccc(NCC5CCOCC5)c([N+](=O)[O-])c4)c(Oc4cnc5[nH]ccc5c4)c3)CC2)=C(c2ccc(Cl)cc2)C1 + Cc1nc(NC(=O)N2CCCC2C(N)=O)sc1-c1ccnc(C(C)(C)C(F)(F)F)c1"
  viability, T/C: "1.39%"
- MOLECULE: "Cn1nccc1Nc1nccc(-c2ccn(C(CO)c3ccc(Cl)c(F)c3)c(=O)c2)n1 (stereo unspecified) + Cc1nc(NC(=O)N2CCCC2C(N)=O)sc1-c1ccnc(C(C)(C)C(F)(F)F)c1"
  viability, T/C: "32.8%"
- MOLECULE: "Cn1ncc(Cl)c1-c1cc(C(=O)NC(CN)Cc2cccc(F)c2)sc1Cl (stereo unspecified) + Cc1nc(NC(=O)N2CCCC2C(N)=O)sc1-c1ccnc(C(C)(C)C(F)(F)F)c1"
  viability, T/C: "7.56%"
- MOLECULE: "CCCS(=O)(=O)Nc1ccc(F)c(C(=O)c2c[nH]c3ncc(-c4ccc(Cl)cc4)cc23)c1F + Cc1nc(NC(=O)N2CCCC2C(N)=O)sc1-c1ccnc(C(C)(C)C(F)(F)F)c1"
  viability, T/C: "0.13%"
- MOLECULE: "C#Cc1c(F)ccc2cc(O)cc(-c3ncc4c(N5CC6CCC(C5)N6)nc(OCC56CCCN5CC(F)C6)nc4c3F)c12 (stereo unspecified) + Cc1nc(NC(=O)N2CCCC2C(N)=O)sc1-c1ccnc(C(C)(C)C(F)(F)F)c1"
  viability, T/C: "102%"
- MOLECULE: "CC(C)NCC(C(=O)N1CCN(c2ncnc3c2C(C)CC3O)CC1)c1ccc(Cl)cc1 (stereo unspecified) + Cc1nc(NC(=O)N2CCCC2C(N)=O)sc1-c1ccnc(C(C)(C)C(F)(F)F)c1"
  viability, T/C: "16.1%"
